# Tested on: cells incubated with EGF or serum
# Assay remarks: Inhibition of cell proliferation as measured by inhibition of DNA synthesis ([3H]thymidine incorporation)
# Assay type: cell-based
# Condition details: [3H]thymidine incorporation halved; cells stimulated with EGF (20 ng/ml); read-out: IC50 - EGF
Observed property: IC50 (µM)
Kindly answer with a numeric value in µM, unit omitted.

[Q] Param item = N#CC(=Cc1ccc(O)c(O)c1)C(=O)Nc1ccccc1 ; retrieve measured IC50.
[A] 30

[Q] Param item = CC(C)(C)c1cc(C=C(C#N)C(N)=S)cc(C(C)(C)C)c1 ; retrieve measured IC50.
[A] 20

###

# Study system: EGF receptor (Homo sapiens, UniProt P00533)
# Sequence (P00533 25-1210): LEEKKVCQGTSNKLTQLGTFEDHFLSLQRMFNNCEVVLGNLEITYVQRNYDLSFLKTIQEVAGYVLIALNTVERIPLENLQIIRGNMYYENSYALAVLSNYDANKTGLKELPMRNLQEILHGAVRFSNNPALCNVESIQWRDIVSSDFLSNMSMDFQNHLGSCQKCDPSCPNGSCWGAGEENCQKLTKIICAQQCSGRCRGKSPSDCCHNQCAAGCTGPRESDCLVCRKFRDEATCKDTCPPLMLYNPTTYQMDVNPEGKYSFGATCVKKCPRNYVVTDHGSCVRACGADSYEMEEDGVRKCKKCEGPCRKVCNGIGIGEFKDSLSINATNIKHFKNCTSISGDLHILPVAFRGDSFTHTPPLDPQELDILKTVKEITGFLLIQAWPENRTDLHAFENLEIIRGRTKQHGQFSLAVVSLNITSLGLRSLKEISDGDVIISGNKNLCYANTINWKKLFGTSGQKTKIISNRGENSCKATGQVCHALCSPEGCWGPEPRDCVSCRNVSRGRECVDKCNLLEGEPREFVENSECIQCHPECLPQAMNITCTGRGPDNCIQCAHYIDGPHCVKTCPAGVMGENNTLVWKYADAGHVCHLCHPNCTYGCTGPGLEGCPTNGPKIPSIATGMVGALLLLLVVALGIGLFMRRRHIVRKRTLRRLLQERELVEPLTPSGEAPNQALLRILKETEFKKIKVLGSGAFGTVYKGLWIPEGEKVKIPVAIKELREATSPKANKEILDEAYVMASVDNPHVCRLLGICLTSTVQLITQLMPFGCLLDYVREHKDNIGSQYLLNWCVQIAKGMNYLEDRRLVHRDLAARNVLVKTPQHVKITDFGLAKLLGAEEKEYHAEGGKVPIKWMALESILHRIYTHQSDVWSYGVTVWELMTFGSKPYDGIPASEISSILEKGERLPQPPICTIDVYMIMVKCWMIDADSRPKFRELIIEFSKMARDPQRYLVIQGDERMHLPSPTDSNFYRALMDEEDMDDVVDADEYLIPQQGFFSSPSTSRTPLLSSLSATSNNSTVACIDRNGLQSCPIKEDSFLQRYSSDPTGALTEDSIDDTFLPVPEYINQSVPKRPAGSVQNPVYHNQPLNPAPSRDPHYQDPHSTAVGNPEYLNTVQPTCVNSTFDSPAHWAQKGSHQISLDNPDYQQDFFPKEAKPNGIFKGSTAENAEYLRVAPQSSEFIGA
# Assay remarks: EGF-receptor kinase (PTK) activity inhibition on extracted EGF receptors, poly(GAT) substrate, Dixon analysis
# Condition details: EGF receptors from A431 cells; copoly Glu6Ala3Tyr1 substrate; analysis according to Dixon; read-out: Klnh, dissociation constant of the PTK-inhibitor complex
Observed property: log10 of Ki (log10 of the value in µM)
log10 Ki, µM

[Q] Param item = N#CC(C#N)=C(O)c1cc(O)c(O)c(O)c1 ; retrieve measured log10 of Ki.
[A] 0.65

[Q] Param item = N#CC(C#N)=Cc1ccc(C=O)cc1 ; retrieve measured log10 of Ki.
[A] 1.30

[Q] Param item = N#CC(=Cc1ccc(O)c(O)c1)C(N)=O [Example 6, α-Cyano-3,4-dihydroxycinnamamide] ; retrieve measured log10 of Ki.
[A] 0.54

[Q] Param item = COc1cc(C=C(C#N)C#N)cc(O)c1O ; retrieve measured log10 of Ki.
[A] 0.34

[Q] Param item = N#CC(=Cc1ccc(O)c(O)c1)C(=O)O [Example 10, α-Cyano-3,4-dihydroxycinnamic acid] ; retrieve measured log10 of Ki.
[A] 1.37
